FYI, the data here is from the nanobody polyreactivity screen of Harvey et al. (2022).

- assay-comment: yeast display, Sf9 membrane polyspecificity reagent, FACS + sequencing; frameworks hold sequencing errors
property-label: polyreactivity (PSR sort gate)

sequence-entry: QVQLVESGGGLVQAGGSLRLSCAASGSIFDIYAMGWYREAPGKERELVAAISGRGGSTYADSVKGRFTISRDNAKNTVYLQMNSLKPEDTAVYYCATERHRFGGLYYWGQGTQVTVSS
result: low polyreactivity
--
sequence-entry: QVQMQERAAWCRRAGSLRLSCAASGNITDYYFMSWYRQAPGKERELVAAIAPGSNTYYADSVKGRFTISRDNAKNTVYLQMNSLKPEDTAVCFCAANSTQYTWFDYWGQGTQVPVSS
result: low polyreactivity
--
sequence-entry: QVQLVESGGGLVQAGGSLRLSCAASGFTFKSYAMGWSRQAPGKERELVAAISRGGSTYYADSVKGRFTISRDNAKNTVYLQMNSLKPEDTAVYYCNKTRYSRSYYEYDYWGQGTQVTVSS
result: low polyreactivity
--
sequence-entry: QVQLVESGGGLVQAGGSLRLSCAASGFTFRVNAMGWYRQAPGKERELVAASSSGGRTYYADSVKGRFTISRDNAKNTVYLQMNSLKPEDTAVYYCNAGRVRHGNDYWGQGTQVTVSS
result: high polyreactivity
--
sequence-entry: QVQLVESGGGLDQAGGSLRLSCAASGSIFYPYAMGWYRQAPGKERELVASNSSGGSTYYADSVKGRFTISRDNAKNTVYLQMNSLKPEDTAVYYCARQDYKRFYRYRFGNLYDSWGQGTQVTVSS
result: high polyreactivity

----------
- assay-comment: yeast display, Sf9 membrane polyspecificity reagent, FACS + sequencing; frameworks hold sequencing errors
property-label: polyreactivity (PSR sort gate)

sequence-entry: QVQLVESGGGLVQAGGSLRLSCAASGRIFNYYAMGWYRQAPGKEREFVAAITRSGGRTYYADSVKGRFTISRDNAKNTVYLQMNSLKPEDPAVYYCAAGRYVWREYYYWGQGTQVTVSS
result: high polyreactivity
--
sequence-entry: QVQLVESGGGLVQAGGSLRLSCAASGSIFSSNTMGWYRQAPGKERELVAAITSGGGTYYADSVKGRFTISRDNAKNTVYLQMNSLKPEDTAVYYCAAQRDYKSSPSYDYWGQGTQVNVSS
result: low polyreactivity
--
sequence-entry: QVQLVESGGGLVQAGGSLRLSCAASGRIFGKNAMGWYRQAPGKERELVAAISANGGSTSYADSVKGRFTISRDNAKNTVYLQMNSLKPEDTAVYYCNVRRQLRGDYWGHGTQVTVSS
result: high polyreactivity
--
sequence-entry: QVQLVESGGGLVQAGGSLRLSCAASGSIFNYYAMGWYRQAAGKERELVAVITSGGSTYYAESVKGRFTISRDNAKYSVYLQMNSLKPEDTAVYFCAADDGTGEASVSSNLYDYWGQGTQVTVSS
result: low polyreactivity
--
sequence-entry: QVQLVESGGGLVQAGGSLRLSCAASGRIYYYAMGWYRQAPGKERELVAAISRGGSTKYADSVKGRFTISRDNAKNTVYLQMNSLKPEETAVYYCAAGGTVYRYDYWGQGTQVTVSS
result: low polyreactivity

----------
- assay-comment: yeast display, Sf9 membrane polyspecificity reagent, FACS + sequencing; frameworks hold sequencing errors

sequence-entry: QVQLEESGGGLVQAGGSLRLTCAGSGSIFDGNSMGWDRQAPGKEMELVASISWSGGTTYYADSVKGRFTISRDNATNTVYLQMNSLIPEDTAVYYCNKAGGYRRYSFWSGDYWAGLDFLGQGTQVTVSS
polyreactivity (PSR sort gate): low polyreactivity
--
sequence-entry: QVQHVESGGGLVQAGGSLRLRCAASGRTFGQNTMGWSRQAPGKERELVAAISWSGDSTYYADSVKGRFTISRDNAKNTVYLQMNSLKTEDSAVYYCAADPYNYYVSGYDYWGQGTQVTVSS
polyreactivity (PSR sort gate): low polyreactivity
--
sequence-entry: QVQLVESGGGLVQAGGSLRLSCAASGFTFRVYAMGWYRQAPGKERELVAAITQRGGSTYYADSVKGRFTISRDNSKNTVYLQMNRLNTEDTAVYYCNKFAGQPTYDYWGQGTQVTVSS
polyreactivity (PSR sort gate): high polyreactivity
--
sequence-entry: HVQLVESGGGLVQAGGSLRLSCAASGIIFNLYAMGWYRQAPVKERELFAAISWSGGSTYYADSVKGRFTISRDNAKNTVYLKMNSLKPEDTAVYYCAAQRSVFKSFRTTYVRYDYWGQGTQVTVSS
polyreactivity (PSR sort gate): high polyreactivity
--
sequence-entry: QGQLVESGGGLVQAGGSLRLSCAASGFIFSKYAMGWYRQAPGKERELVAAISYRTVRTYYADSVKGRFTISRDNAKNTVDLQMNSLKPEDTAVYYCAADSRYWLYDYWGQGTQVTVSS
polyreactivity (PSR sort gate): high polyreactivity
--
sequence-entry: QVQLVESGGGLVQAGGSLRLSCAASGSTFTVNGMGWYRQAPGKERELVASITWSGGSTYYADSVKGRFTISRDNAKNTVYLQMNSLKPEATAVYYCAADEKLYITGYDYWGQGTQVTVSS
polyreactivity (PSR sort gate): low polyreactivity
--
sequence-entry: QVQLVESGGGLVQAGGSLRLICAASGRTFENYAMGWYRQAPGKERELVAAISKSGGSTYYADSVKGRFTISRDNAKNPVYLQMNSLKPEDTAVYYCNARPGQSGARFGYWGQGTQVTVSS
polyreactivity (PSR sort gate): high polyreactivity
--
sequence-entry: QVQLVESGGGLVQAGGSLRLSCAASGSTFYTYAMGWYRQAPGKERELVAAISWSGGSTYYADSVKGRFTISRDNAKNTVYLQMNSLKPEDTAVYYCAADRPYAGRYWKGYHSALYDYWGQGTQVTVSS
polyreactivity (PSR sort gate): low polyreactivity
--
sequence-entry: QVQLVESGGGLVQAGGSLRLSSAASGFTFYWYAMGWYRQAPGKEREFVAAIDQSGGSTYYADSVKGRFTISRDNAKNTVYLQMNSLKPEDTAVYYCAARYILWDGYSWTEFDYWGQGTQVTVSS
polyreactivity (PSR sort gate): low polyreactivity
--
sequence-entry: QVQLVESGGGLVQAGGSLRLSCAASGYTIYVNAMGRYRQAPAKQRQLVASNRRDSTYYADSVKGRFTISRDNAKNTVYLQMNSLKPEDSAVYYCAVDWYPWLYDGRTYEYWGQGTQVTVSS
polyreactivity (PSR sort gate): low polyreactivity
--
sequence-entry: QVQLVESGGGLVQAGGSLRLSCAASGFIFPDNVMGWYRQAPGKERELVAAISRSGGSTYYADSVKGRFTISRDNAKNTVYLQMNSLKPEDTAVYYCAVKFVRYRQGIVLYDYWGQGTQVTVSS
polyreactivity (PSR sort gate): high polyreactivity
--
sequence-entry: QVQLVESGGGLVQAGGSLRLSCAASGSIFPTNAMGWYRQAPGKERELVAAITGNGGRTYYADSVKGRFTISRDNAKNTVYLQMNSLKPEDTAVYYCAALTYASNRYGYWGQGTQVTVSS
polyreactivity (PSR sort gate): high polyreactivity
--
sequence-entry: QVQLVESGGGLVQAGGSLRLSCAASGLIFYYYAMGWYRQAPGKERELVADIDRGGDTYYADSVKGRFTISRDNAKNTVYLQMNSLKPEDTAVYYGAAVDFYGYVPEFGYWGQGTQVTVSS
polyreactivity (PSR sort gate): low polyreactivity
--
sequence-entry: QVQLVESGGGLVQAGGSLRLSCAASGGIFAPYVMGWYRQAPGKERELVAGITWSGGSTYYADSVKGRFTISRDNAKITVYLQMNSLKPEDTAVYYCAAEWYYSVIWLYEYWGQVTQVTVSS
polyreactivity (PSR sort gate): high polyreactivity
--
sequence-entry: QVQLVESGGGLDQAGGSLRLSCAASGSIFTYNVMGWYRQAPGKERELVAAISWDGDSTYYADSVKGRFTISRDNAMKTVYLQMNSLKAEDTAVYYCAADVHEKFQYDYWGQGNQVTVSS
polyreactivity (PSR sort gate): high polyreactivity
--
sequence-entry: QVQLVESGGGLVQAGGSLRLSCAASGYTFWWYAMGWYRQAPGKEREFVAAIRFSGGTGTYYADSVKGRFTISRDNAKNTVYLQMNSLKPEDTAVYYCAADIAFRQWQVGDFDYWGQGTQVTVSS
polyreactivity (PSR sort gate): low polyreactivity
--
sequence-entry: QVQLVESCGGLVHAGGSLRLSCAASGRIIIFYAMGWYRQAPGKERELVASITSGASTYADSVKGRFTISRDNAKNTVYLQLNSLKPEDTAVYYCAKDYLDATPWFTWPTYSEFDYWGQGTQVTVSS
polyreactivity (PSR sort gate): low polyreactivity
--
sequence-entry: QVQLVESGGRLVQAGGSLRLSCAASGSIFLAYDMGWYRQAPGKERELVAGITSVGTTYYADSVKGRFTISRDNAKNTVYFQMNSLKPEDTAVYYCAAQLYIRNHFRYASTAAYDMGYWGQGTQVTVSS
polyreactivity (PSR sort gate): low polyreactivity
--
sequence-entry: QVQLVESGGGLVQAGGSLRLSCAASGRIFQTYAMGWYRQAPGKERELVAAISSRGRTYYADSVKGRFTISRDNAKNTVYLQMNSLKPEDTAVYYCAARDWSHRPRGYDYWGQGTQVTVSS
polyreactivity (PSR sort gate): high polyreactivity
--
sequence-entry: QVQLEDSGGGLVQAGGTHSLSCAASGFTFARNTMGWYRQAPGKERELVAAISWRGGRTYYADSVTGRFTISRDNAKNTDYLQMNRLKPEDRAVYYCNGVILKLGDALYDYWGEGTQVTVSS
polyreactivity (PSR sort gate): high polyreactivity
--
sequence-entry: QVQLVESGGGLVQAGGSLRLSCAASGSIFNSNAMGWSRQAPGKERELVAVISWSDGSTRYADSVKGRFTISRDNAKNTVYLQMNSLKPEDTAVYYCNADLVYYYRQEVDYWGQGTQVTVSS
polyreactivity (PSR sort gate): low polyreactivity
